assay: Solubility of budesonide at room temperature; type: physicochemical; settings: organic solvent or mixture, propylene glycol, read-out: solubility in propylene glycol
Readout type: solubility

Query block: Give recorded solubility. CCCC1O[C@@H]2C[C@H]3[C@@H]4CCC5=CC(=O)C=C[C@]5(C)[C@H]4[C@@H](O)C[C@]3(C)[C@]2(C(=O)CO)O1 (stereo partly shown) [budesonide]
Result block: ~10000 µg/mL

* * *

assay: Solubility of budesonide at room temperature; format: physicochemical; settings: water, read-out: solubility in water
Readout type: solubility

Query block: Give recorded solubility. CCCC1O[C@@H]2C[C@H]3[C@@H]4CCC5=CC(=O)C=C[C@]5(C)[C@H]4[C@@H](O)C[C@]3(C)[C@]2(C(=O)CO)O1 (stereo partly shown) [budesonide]
Result block: ~10 µg/mL
